Where do the numbers come from? From ChEMBL document CHEMBL4480374.

Ratio Ki overview
Species on record: Rattus norvegicus
Experiment description: Selectivity index, ratio of Ki for adenosine A1 receptor in rat brain membranes to Ki for adenosine A2A receptor in rat striatal membranes
Assay type: cell membranes
Metric: Ratio Ki

[[record]]
smiles_str = "COc1cc2c(cc1OC)C(=O)/C(=C/c1ccc(O)c(O)c1)C2"
metric = "Ratio Ki"
quantitative_result = 0.2

[[record]]
smiles_str = "COc1ccc2c(c1)C/C(=C\\c1ccc(O)c(O)c1)C2=O"
metric = "Ratio Ki"
quantitative_result = 0.5

[[record]]
smiles_str = "COc1cccc2c1C/C(=C\\c1cccc(O)c1)C2=O"
metric = "Ratio Ki"
quantitative_result = 0.4

[[record]]
smiles_str = "COc1cccc2c1C/C(=C\\c1ccc(O)c(O)c1)C2=O"
metric = "Ratio Ki"
quantitative_result = 0.5

[[record]]
smiles_str = "O=C1/C(=C/c2ccc(O)c(O)c2)Cc2c(O)cccc21"
metric = "Ratio Ki"
quantitative_result = 0.5

